Test system: giant foxtail (Setaria faberi)
Experimental Protocol: Test G Pre-Emergence Protocol
Type: in vivo
Details: Setaria faberi, pre-emergence, 312 h, 15.625 g ai/ha, evaluated after 13 days, read-out: Foxtail, Giant damage rating (100=total damage to plant; 0=no damage to plant)
Outcome Measure: pest or weed control at 15.625 g/ha (%)

> print(dat)
                                    molecule                 subject.of.test  unit.of.measure  measured.value
 1  CN1C[C@@H](c2ccc(C(F)(F)F)cc2)[C@H](C(=O)Nc2cnccc2C(F)(F)F)C1=O (racemic) [Compound 1401]  giant foxtail (Setaria faberi)                %              40
 2  CN1C[C@@H](c2cccc(I)c2)[C@H](C(=O)Nc2cccc(F)c2F)C1=O (racemic) [Compound 1754]  giant foxtail (Setaria faberi)                %              80
 3  CN1C[C@H](c2ccc(C(F)(F)F)cc2)[C@@H](C(=O)NC2=NOC(C)(C)C2)C1=O (racemic) [Compound 1427]  giant foxtail (Setaria faberi)                %               0
 4  CN1C[C@@H](c2ccc(C(F)(F)F)cc2)[C@H](C(=O)Nc2nnc(C(F)(F)F)o2)C1=O (racemic) [Compound 1604]  giant foxtail (Setaria faberi)                %               0
 5  CN1C[C@@H](c2ccc(C(F)(F)F)cc2)[C@H](C(=O)Nc2nnc(C(F)(F)F)[nH]2)C1=O (racemic) [Compound 1550]  giant foxtail (Setaria faberi)                %               0
 6  Cc1cc(C2CN(C)C(=O)C2C(=O)Nc2cccc(F)c2F)cc(Cl)c1F (centres unmarked) [Compound 1708]  giant foxtail (Setaria faberi)                %              60
 7  CN1C[C@H](c2cccc(C(F)(F)F)c2)[C@@H](C(=O)Nc2cnccc2C#N)C1=O (racemic) [Compound 1761]  giant foxtail (Setaria faberi)                %               0
 8  COc1c(Cl)cccc1NC(=O)[C@H]1C(=O)N(C)C[C@@H]1c1ccc(C(F)(F)F)cc1 (racemic) [Compound 1447]  giant foxtail (Setaria faberi)                %              50
 9  Cc1nc(NC(=O)[C@@H]2C(=O)N(C)C[C@H]2c2ccc(C(F)(F)F)cc2)ccc1F (racemic) [Compound 1613]  giant foxtail (Setaria faberi)                %               0
10  CCc1cc([C@@H]2CN(C)C(=O)[C@H]2C(=O)Nc2cccc(F)c2C)ccc1Cl (racemic) [Compound 1804]  giant foxtail (Setaria faberi)                %              50
11  Cc1c(Br)cccc1NC(=O)[C@@H]1C(=O)N(C)C[C@H]1c1ccc(C(F)(F)F)cc1 (racemic) [Compound 1619]  giant foxtail (Setaria faberi)                %               0
12  C=Cc1ccc([C@H]2CN(C)C(=O)[C@@H]2C(=O)Nc2ccccc2F)cc1 (racemic) [Compound 1457]  giant foxtail (Setaria faberi)                %               0
13  CN1C[C@@H](c2ccc(C(F)(F)F)cc2)[C@H](C(=O)Nc2ccc(F)nc2F)C1=O (racemic) [Compound 1650]  giant foxtail (Setaria faberi)                %              40
14  COc1cc(OC(F)(F)F)cc(C2CN(C)C(=O)C2C(=O)Nc2cccc(F)c2F)c1 (centres unmarked) [Compound 1697]  giant foxtail (Setaria faberi)                %              70
